experimentalSystem: T1, NHERF3_4, Q5T2W1
T1 sequence (Q5T2W1 373-468, limits assumed, looked up): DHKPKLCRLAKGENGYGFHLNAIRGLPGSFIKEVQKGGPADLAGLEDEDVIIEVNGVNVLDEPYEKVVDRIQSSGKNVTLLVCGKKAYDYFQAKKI
assay: holdup assay
Set-up: key: below the threshold = too weak to quantify, mostly under pKd 3.1 to 4
testContext: plain residues with an end cap or a label only (N-terminal biotin on a linker: ado-ado)
measureName: pKd

Examples from the recorded data:
binder: MQHQRTHTRV [ZSCAN30, Q86W11]
reportedValue: 3.51

binder: QSYPSKHDYV [CLDN18, P56856]
reportedValue: 3.48

binder: GTGYDRKDYV [CLDN3, O15551]
reportedValue: below the threshold

binder: PPGKHLVTEV [KCNA7, Q96RP8]
reportedValue: below the threshold

binder: KRPEMTSSSV [MUC3B, MUC3A, Q02505;Q9H195]
reportedValue: below the threshold

Provide reported pKd for each item, in the same order as listed.
1. QKAPTKEFYA [SDC2, P34741]
2. EDGESWEYQI [TRPV6, Q9H1D0]
3. AQRARSPSDV [GPR12, P47775]
4. DRIQSCLSDA [SBF1, O95248]

[3.82, "below the threshold", "below the threshold", "below the threshold"]

Provide reported pKd for each item, in the same order as listed.
1. NTLNRKTTPV [CACNG8, Q8WXS5]
2. IDESKKEWLI [CNTNAP2, Q9UHC6]
3. TGLWKHETTV [ADGRA3, Q8IWK6]
4. RDPPAEWTRV [PTPN18, Q99952]
5. PSVGSKKTVL [REELD1, A0A1B0GV85]
6. ARGPPRESEV [FAM110D, Q8TAY7]
7. NISYRRESAI [KCNJ4, P48050]
8. MHIQEKGFHV [EPHA6, Q9UF33]

1. 3.66
2. below the threshold
3. below the threshold
4. below the threshold
5. 3.87
6. below the threshold
7. below the threshold
8. below the threshold
